TEST SUMMARY: Cytoprotective activity in Sprague-Dawley rat primary astrocytes assessed as inhibition of H2O2-induced cell death by LDH release assay
Type: functional, cell-based
MEASUREMENT CONDITIONS: Astrocyte
pIC50: −log10 of the molar value.
ENDPOINT NAME: pIC50

[
  {
    "CPD SMILES": "Cc1cc(C2CCCCC2)n(O)c(=O)c1",
    "TEST VALUE": 6.60
  },
  {
    "CPD SMILES": "COc1ccccc1-c1ccc(-c2cc(C)cc(=O)n2O)cc1",
    "TEST VALUE": 6.81
  }
]
